Reference for the values: patent US7772246B2

Here the recorded IC50 is given for each entry.
Biological target: b-Raf (Homo sapiens, UniProt P15056, V600E)
Construct: endogenous in cells; host or cells: A2058 human melanoma cells
Sequence (P15056 whole entry V600E): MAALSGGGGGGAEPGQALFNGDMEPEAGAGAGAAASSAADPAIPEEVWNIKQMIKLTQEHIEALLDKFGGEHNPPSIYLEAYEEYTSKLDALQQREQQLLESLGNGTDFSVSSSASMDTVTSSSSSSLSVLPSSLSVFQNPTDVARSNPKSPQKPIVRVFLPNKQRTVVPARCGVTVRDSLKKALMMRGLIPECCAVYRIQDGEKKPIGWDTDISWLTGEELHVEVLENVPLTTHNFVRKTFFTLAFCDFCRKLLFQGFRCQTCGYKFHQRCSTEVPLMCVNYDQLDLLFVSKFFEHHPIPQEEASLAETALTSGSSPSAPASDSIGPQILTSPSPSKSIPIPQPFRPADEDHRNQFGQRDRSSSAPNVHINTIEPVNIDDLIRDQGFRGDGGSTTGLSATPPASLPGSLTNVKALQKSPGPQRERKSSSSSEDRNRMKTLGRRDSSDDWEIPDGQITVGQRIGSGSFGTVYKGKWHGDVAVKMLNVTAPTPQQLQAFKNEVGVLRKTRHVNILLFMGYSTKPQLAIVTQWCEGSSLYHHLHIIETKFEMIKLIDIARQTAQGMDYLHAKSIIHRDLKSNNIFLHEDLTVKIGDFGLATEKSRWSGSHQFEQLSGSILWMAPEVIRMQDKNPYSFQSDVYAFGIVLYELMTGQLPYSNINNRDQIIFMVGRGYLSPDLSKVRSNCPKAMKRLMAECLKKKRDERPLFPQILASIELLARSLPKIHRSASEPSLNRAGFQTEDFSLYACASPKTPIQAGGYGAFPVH
Assay: Raf cellular assay (phospho-Mek1/2 ELISA in A2058 cells)
Format: cell-based
Settings: Table 3; human melanoma A2058 cells (b-Raf mutation), Mek1/2 Ser217/221 phosphorylation, 1 hour incubation; read-out: pMEK IC50
Express the result in nM but write the number alone.

>>> observed("Cc1c[nH]c2ncc(-c3nn(C(C)C)cc3-c3ccnc(N)n3)cc12 [Example B-62]")
48.1
>>> observed("COc1cncc(-c2nn([C@@H]3CCOC3)cc2-c2ccnc(NCCC#N)n2)c1 [Example B-73]")
63.5
>>> observed("CC(=O)Nc1cc(C)c(-c2nn(CC(F)F)cc2-c2ccnc(NCCC#N)n2)cn1 [Example B-26]")
2200

Entry Cc1c[nH]c2ncc(-c3nn(C(C)(C)C)cc3-c3ccnc(NC[C@H](C)O)n3)cc12 [Example B-66] : reported IC50 = ?
2.87

Entry N#CCCNc1nccc(-c2cn([C@@H]3CCOC3)nc2-c2cnc3[nH]ccc3c2)n1 [Example B-75] : reported IC50 = ?
23.8

Entry Cc1n[nH]c2ncc(-c3nn(CC(F)F)cc3-c3ccnc(NCC(F)F)n3)cc12 [Example G-3] : reported IC50 = ?
22.9

Entry C[C@H](O)CNc1nccc(-c2cn(CC(F)F)nc2-c2cnc3c(c2)CCN3)n1 [Example B-102] : reported IC50 = ?
509

Entry CC(C)n1cc(-c2ccnc(N)n2)c(-c2cnc3[nH]cc(Cl)c3c2)n1 [Example B-60] : reported IC50 = ?
44

----------
Target: b-Raf (Homo sapiens, UniProt P15056, V600E)
Construct: endogenous in cells; host or cells: A2058 human melanoma cells
Experiment: Raf cellular assay (phospho-Mek1/2 ELISA in A2058 cells)
Format: cell-based
Conditions: Table 2; human melanoma A2058 cells (b-Raf mutation), Mek1/2 Ser217/221 phosphorylation, 1 hour incubation; read-out: pMEK IC50
For each record, check the reported IC50: if it is below 0.2 µM write 1, else write -1.

>>> classification("Cc1n[nH]c2ncc(-c3nn(C(C)C)cc3-c3ccnc(NC[C@H](C)O)n3)cc12")
1
>>> classification("Cc1cc(-c2nn(C(C)C)cc2-c2ccnc(NC[C@H](C)O)n2)cnc1N")
-1
>>> classification("CC(C)n1cc(-c2ccnc(NC[C@H](C)O)n2)c(-c2cnc3[nH]cc(Cl)c3c2)n1")
1
>>> classification("C[C@H](O)CNc1nccc(-c2cn(C)nc2-c2cnc3[nH]cc(Cl)c3c2)n1")
-1
>>> classification("C[C@H](O)CNc1nccc(-c2cn(C)nc2-c2cnc3[nH]ccc3c2)n1")
-1
>>> classification("C[C@H](O)CNc1nccc(-c2cn(CC(F)F)nc2-c2cnc3[nH]cc(Cl)c3c2)n1")
1
>>> classification("Cc1c[nH]c2ncc(-c3nn(C(C)C)cc3-c3ccnc(NC[C@H](C)O)n3)cc12")
1
>>> classification("CNc1ccc(-c2nn(C(C)C)cc2-c2ccnc(NC[C@H](C)O)n2)cn1")
-1

Next up:
# TODO verify IC50 < 0.2 µM strictly for this compound: CC(C)n1cc(-c2ccnc(NC[C@H](C)O)n2)c(-c2cnc3c(c2)CCN3)n1
-1

----------
Target: b-Raf (Homo sapiens, UniProt P15056, V600E)
Construct: endogenous in cells; host or cells: A2058 human melanoma cells
Experiment: Raf cellular assay (phospho-Mek1/2 ELISA in A2058 cells)
Type: cell-based
Details: Table 2; human melanoma A2058 cells (b-Raf mutation), Mek1/2 Ser217/221 phosphorylation, 1 hour incubation; read-out: pMEK IC50
ENDPOINT: pIC50
Units for pIC50: none; it is -log10 of a concentration expressed in mol/L.

>>> observed("CC(C)n1cc(-c2ccnc(NC[C@H](C)O)n2)c(-c2cnc3[nH]ncc3c2)n1")
5.70

From here, focus on the item given below.
Entry CC(CO)Nc1nccc(-c2cn(C(C)C)nc2-c2cnc3[nH]ccc3c2)n1 (stereo in doubt) : reported pIC50 = ?
6.04

----------
Here the recorded pIC50 is given for each entry.
Target: b-Raf (Homo sapiens, UniProt P15056, V600E)
Construct: endogenous in cells; host or cells: A2058 human melanoma cells
Experiment: Raf cellular assay (phospho-Mek1/2 ELISA in A2058 cells)
Format: cell-based
Conditions: Table 3; human melanoma A2058 cells (b-Raf mutation), Mek1/2 Ser217/221 phosphorylation, 1 hour incubation; read-out: pMEK IC50
Units for pIC50: none; it is -log10 of a concentration expressed in mol/L.

>>> observed("COc1cc(-c2nn(C3CC3)cc2-c2ccnc(NCCC#N)n2)cnc1N [Example B-57]")
8.53
>>> observed("Nc1nccc(-c2cn(CC(F)F)nc2-c2cnc3[nH]cc(Cl)c3c2)n1 [Example B-107]")
8.09

Entry COc1cc(-c2nn(C3CCOCC3)cc2-c2ccnc(NCC(F)F)n2)cnc1N [Example B-70] : reported pIC50 = ?
8.63

Entry C[C@H](O)CNc1nccc(-c2cn(CC(F)F)nc2-c2ccnc3[nH]ccc23)n1 [Example B-29] : reported pIC50 = ?
5.03

----------
Biological target: b-Raf (Homo sapiens, UniProt P15056)
Construct: Full-length wild type b-Raf is expressed in recombinant form and purified from bacterial or insect cells
Sequence (P15056 whole entry): as the sequence (P15056 whole entry V600E) above, with E600V counted along it
Test: Raf biochemical assay (in vitro kinase assay, 32-P transfer from ATP to Mek1)
Settings: full-length wild type b-Raf, Mek1 substrate, 25 μM ATP
ENDPOINT: pKi
Units for pKi: none; it is -log10 of a concentration expressed in mol/L.

Hello, I am looking for reported pKi with b-Raf (Homo sapiens, UniProt P15056) for CC(C)n1cc(-c2ccnc(NCCO)n2)c(-c2cnc3[nH]ccc3c2)n1 [Example D-6] . Could you help?
8.87

Hello, I am looking for reported pKi with b-Raf (Homo sapiens, UniProt P15056) for CC(C)n1cc(-c2ccnc(NC[C@H](C)O)n2)c(-c2cnc3[nH]ccc3c2)n1 [Example B-1] . Could you help?
9.30

Hello, I am looking for reported pKi with b-Raf (Homo sapiens, UniProt P15056) for Cc1nc2ncc(-c3nn(C(C)C)cc3-c3ccnc(NC[C@H](C)O)n3)cn2c1C [Example B-9] . Could you help?
8.70

----------
Target: b-Raf (Homo sapiens, UniProt P15056, V600E)
Construct: endogenous in cells; host or cells: A2058 human melanoma cells
Test: Raf cellular assay (phospho-Mek1/2 ELISA in A2058 cells)
Format: cell-based
Details: Table 2; human melanoma A2058 cells (b-Raf mutation), Mek1/2 Ser217/221 phosphorylation, 1 hour incubation; read-out: pMEK IC50
ENDPOINT: IC50 (µM)
Express the result in µM but write the number alone.

Check out these entries, answers already filled in.
>>> observed("CCN1CC(CNc2nccc(-c3cn(C(C)C)nc3-c3cnc4[nH]ccc4c3)n2)CC1=O [Example D-14]")
3.14
>>> observed("CC(C)n1cc(-c2ccnc(NC[C@H](C)O)n2)c(-c2cnc3ccn(C)c3n2)n1 [Example B-10]")
5.96

From here, focus on the item given below.
Entry COCCNc1nccc(-c2cn(C(C)C)nc2-c2cnc3[nH]ccc3c2)n1 [Example D-13] : reported IC50 = ?
2.99

----------
Target: b-Raf (Homo sapiens, UniProt P15056, V600E)
Construct: endogenous in cells; host or cells: A2058 human melanoma cells
Test: Raf cellular assay (phospho-Mek1/2 ELISA in A2058 cells)
Type: cell-based
Conditions: Table 3; human melanoma A2058 cells (b-Raf mutation), Mek1/2 Ser217/221 phosphorylation, 1 hour incubation; read-out: pMEK IC50
Using IC50 as the sorting value, the categories are low (below 9 nM), intermediate (9 nM to below 300 nM), high (300 nM or more)

Completed entries (count: 8):
>>> classification("C[C@H](O)CNc1nccc(-c2cn(CC(F)F)nc2-c2cnc3[nH]cc(F)c3c2)n1 [Example B-101]")
"intermediate"
>>> classification("CC(C)(CO)n1cc(-c2ccnc(NCCC#N)n2)c(-c2cnc3[nH]cc(Cl)c3c2)n1 [Example E-5]")
"low"
>>> classification("Cc1c[nH]c2ncc(-c3nn(CC(F)F)cc3-c3ccnc(NCCO)n3)cc12 [Example B-105]")
"intermediate"
>>> classification("Nc1nccc(-c2cn(C3CCNCC3)nc2-c2cnc3[nH]cc(Cl)c3c2)n1 [Example B-63]")
"intermediate"
>>> classification("COc1cc(-c2nn(C)cc2-c2ccnc(NCCC#N)n2)cnc1N [Example G-2]")
"low"
>>> classification("CC(C)(O)CNc1nccc(-c2cn(CC(F)F)nc2-c2cnc3c(c2)CCN3)n1 [Example B-89]")
"intermediate"
>>> classification("CC(C)n1cc(-c2ccnc(NC[C@H](C)O)n2)c(-c2cnc(N)nc2)n1 [Example B-42]")
"high"
>>> classification("Cc1cc(-c2nn(CC(F)F)cc2-c2ccnc(NC[C@H](C)O)n2)cnc1N [Example B-18]")
"high"

State the band of CC(C)(CO)n1cc(-c2ccnc(NCCC#N)n2)c(-c2cnc3[nH]cc(F)c3c2)n1 [Example B-24]
low

State the band of C[C@H](O)CNc1nccc(-c2cn(C(C)(C)C#N)nc2-c2cnc3[nH]cc(Cl)c3c2)n1 [Example B-34]
intermediate

State the band of FC(F)CNc1nccc(-c2cn(CC(F)F)nc2-c2cnc3c(c2)CCN3)n1 [Example B-90]
intermediate

State the band of N#CCCNc1nccc(-c2cn(CC(F)F)nc2-c2cnc3c(c2)CC(=O)N3)n1 [Example B-95]
high

State the band of N#CCCNc1nccc(-c2cn(CC(F)F)nc2-c2cnc3[nH]cc(F)c3c2)n1 [Example B-21]
low

State the band of CC(C)n1cc(-c2ccnc(NCCC#N)n2)c(-c2cccnc2)n1 [Example B-53]
high
